Biological target: type 2 human 5α-reductase (HRED2) (Homo sapiens, UniProt P31213)
Sequence (P31213 whole entry): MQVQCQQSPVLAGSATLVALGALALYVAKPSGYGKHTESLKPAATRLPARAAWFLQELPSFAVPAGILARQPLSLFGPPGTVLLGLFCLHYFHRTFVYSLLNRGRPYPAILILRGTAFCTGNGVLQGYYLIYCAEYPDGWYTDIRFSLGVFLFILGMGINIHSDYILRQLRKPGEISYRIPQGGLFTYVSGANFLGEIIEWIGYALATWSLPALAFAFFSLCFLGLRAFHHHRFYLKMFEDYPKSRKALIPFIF
Assay: Cell free assay of 5α-reductase, microsomes of rat 1A cells expressing type 2 isoenzyme (HRED2);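 further: labeled testosterone and its product dihydrotestosterone measured in microsomal reaction extracts via thin layer chromatography plus radioanalytic scanning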
Type: biochemical
Parameters: expressed in transfected cells; host or cells: rat 1A cells infected with pMV7 retrovirus; microsomes
Conditions: cell free assay; Table 3 curcumin and related compounds; read-out: HRED2 IC50
OBSERVED_PROPERTY: IC50

| MOLECULE | TEST_SYSTEM | IC50 |
| --- | --- | --- |
| COc1cc(CCC(=O)CC(=O)CCc2ccc(O)cc2)ccc1O [Demethoxytetrahydrocurcumin] | type 2 human 5α-reductase (HRED2) (Homo sapiens, UniProt P31213) | > 100 µM |

Now examine the next entry.
-- ask Could you tell me which IC50 is on file for COc1cc(/C=C/C(=O)O)ccc1O ?
-- reply > 100 µM
